Numbers sourced from patent US5733920A.

# EXPERIMENTAL SYSTEM: CDK4/Cyclin D1 (Homo sapiens)
# Sequence (P11802 whole entry, species assumed): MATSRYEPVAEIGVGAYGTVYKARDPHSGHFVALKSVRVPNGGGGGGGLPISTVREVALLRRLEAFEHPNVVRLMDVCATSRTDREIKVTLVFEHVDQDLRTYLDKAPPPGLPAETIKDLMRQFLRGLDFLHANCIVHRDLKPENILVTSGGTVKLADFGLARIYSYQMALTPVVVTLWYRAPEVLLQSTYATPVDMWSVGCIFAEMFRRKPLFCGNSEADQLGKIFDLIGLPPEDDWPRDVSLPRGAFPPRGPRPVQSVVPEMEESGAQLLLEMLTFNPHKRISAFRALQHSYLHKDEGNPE
# Sequence (P24385 whole entry partner, species assumed): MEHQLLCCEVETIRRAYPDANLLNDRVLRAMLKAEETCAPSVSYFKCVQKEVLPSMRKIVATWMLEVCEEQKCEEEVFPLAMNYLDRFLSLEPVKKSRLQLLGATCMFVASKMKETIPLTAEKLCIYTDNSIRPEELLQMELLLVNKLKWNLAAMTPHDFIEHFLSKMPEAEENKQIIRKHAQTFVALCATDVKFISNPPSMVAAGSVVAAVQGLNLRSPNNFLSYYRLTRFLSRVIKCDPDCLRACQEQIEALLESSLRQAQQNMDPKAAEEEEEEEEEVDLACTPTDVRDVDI
# ASSAY INFO: Cyclin D1/cdk4 phosphoRb in vitro kinase assay
# TEST CONTEXT: insect cell lysates expressing cyclin D1 and cdk4; GST-Rb substrate; 32P-ATP; read-out: IC50, inhibition of CDK4/Cyclin D1
RECORDED ENDPOINT: IC50

compound="CN1CC[C@H](O)[C@H](c2c(O)cc(O)c3c(=O)cc(-c4ccccc4Cl)oc23)C1 (relative stereo) [Compound 14]" measured_result="< 150 µM"
compound="CN1CCC(c2c(O)cc(O)c3c(=O)cc(-c4ccccc4Cl)oc23)C(=O)C1 (stereo not drawn) [Compound 5]" measured_result="< 50 µM"
compound="COc1cc(OC)c2c(=O)cc(-c3ccccc3Cl)oc2c1C1=CCN(C)CC1 [Compound 1]" measured_result="< 250 µM"
compound="COc1cc(OC)c2c(=O)cc(-c3ccccc3Cl)oc2c1C1CCN(C)CC1=O (stereo not drawn) [Compound 4]" measured_result="230 µM"
compound="CN1CC=C(c2c(O)cc(O)c3c(=O)cc(-c4ccccc4Cl)oc23)CC1 [Compound 3]" measured_result="< 50 µM"
compound="COc1cc(OC)c2c(=O)cc(-c3ccccc3Cl)oc2c1[C@@H]1CN(C)CC[C@@H]1O (relative stereo) [Compound 13]" measured_result="< 250 µM"
